assay: physchem; conditions: phosphate buffered saline, pH 7.4
Description: Intrinsic solubility of the compound in phosphate buffered saline at pH 7.4 by shake-flask method
Entries and their solubility thermodynamic values follow.
readout.kind: solubility thermodynamic

compound | result
O=C(NC1CCCC1)c1noc(-c2ccc(C(F)(F)F)c(F)c2)c1CO | 0.073 mg/mL
O=C(NC1CCOCC1)c1noc(-c2ccc(C(F)(F)F)cc2)c1CO | 0.035 mg/mL
O=C(N[C@@H]1CCC[C@H](O)C1)c1noc(-c2ccc(F)cc2)c1Cl | 0.038 mg/mL
CC[C@H](CO)NC(=O)c1noc(-c2ccc(C(F)(F)F)c(F)c2)c1CO | 0.031 mg/mL
CC(C)[C@H](C)NC(=O)c1noc(-c2ccc(C(F)(F)F)c(F)c2)c1CO | 0.0014 mg/mL
CC(C)[C@H](C)NC(=O)c1noc(-c2ccc(C(F)(F)F)cc2)c1CO | 0.0015 mg/mL
O=C(NC1CCC(O)CC1)c1noc(-c2ccc(C(F)(F)F)cc2)c1CO (stereo not drawn) | 0.07 mg/mL
CN(C)C(=O)c1c(C(=O)NC2CCCC2)noc1-c1ccc(C(F)(F)F)cc1 | < 0.001 mg/mL
